Where do these numbers come from? They come from PubChem BioAssay (NCI).

Reported values of GI50 for individual entries
test system: MALME-3M melanoma; test: NCI tumour cell line growth inhibition, 48 h
property_name: GI50

compound: COC(=O)c1ccc2c(c1)C(=O)c1c-2n(CCCN=[N+]=[N-])c(=O)c2cc(OC)c(OC)cc12
property_name: GI50
result: > 100000 nM
//
compound: C[n+]1c(/C=C/c2c(O)ccc3ccccc23)ccc2ccccc21
property_name: GI50
result: 5300 nM
//
compound: NC(=O)c1c(NC(=O)c2ccccc2)sc2c1CCC(=O)C2
property_name: GI50
result: 2140 nM
//
compound: COC(=O)[C@]12CC[C@@H](C)[C@H](C)[C@@H]1C1=CC[C@@H]3[C@@]4(C)C[C@@H](O)[C@H](O)[C@@](C)(CO)C4=CC[C@@]3(C)[C@]1(C)CC2
property_name: GI50
result: 17500 nM
//
compound: CC(=O)ON1CCCC(P(=O)(OCCSC(=O)C(C)(C)C)OCCSC(=O)C(C)(C)C)C1=O (stereo unspecified)
property_name: GI50
result: 537 nM
//
compound: CC(NCCC(c1ccccc1)c1ccccc1)c1ccccc1 (stereo unspecified)
property_name: GI50
result: 1750 nM

----------
test system: MOLT-4 leukemia; assay: NCI tumour cell line growth inhibition, 48 h

compound: O=C1OCC/C1=N/O
TGI: > 100 µM

compound: NS(=O)(=O)c1ccc(NC(=S)/N=C/C2=C(O)c3ccccc3C2=O)cc1
TGI: > 100 µM

compound: COc1ccc(C(=O)/C=C/c2ccc(OCCCOc3ccc(/C=C/C(=O)c4ccc(OC)cc4)cc3)cc2)cc1
TGI: > 100 µM

compound: NCCCN1c2ccccc2Sc2ccc(Cl)cc21
TGI: > 10 µM

compound: COc1cc(OC)cc(C(=O)CC(=O)c2cc(OC)cc(OC)c2)c1
TGI: > 100 µM

compound: COC(=O)C1CCCC2(C1)OCCO2 (stereo not given)
TGI: > 100 µM

compound: C[C@H](CCC(=O)O)[C@H]1CC[C@H]2[C@@H]3C(=O)C[C@@H]4C[C@H](O)CC[C@]4(C)[C@H]3C[C@H](O)[C@]12C
TGI: > 100 µM

compound: CC(c1ccccc1)N1CCN(C(C)c2ccccc2)CC1 (stereo not given)
TGI: > 100 µM

compound: CC(C)(C)[Si](C)(C)OCC1OC(n2ccc(=O)[nH]c2=O)C(O[Si](C)(C)C(C)(C)C)/C1=C/C#N (stereo not given)
TGI: > 21.1 µM

compound: NS(=O)(=O)c1ccc(N=Nc2c(O)c(C(=O)O)cc3ccccc23)cc1
TGI: > 100 µM

----------
GI50, U251 CNS, per-entry values.
property_name: GI50

compound: NC(=O)c1c(NC(=O)c2ccccc2)sc2c1CCC(=O)C2
result: 955 nM

compound: N=c1c2c(-c3ccccc3)c(-c3ccccc3)n(Cc3ccccc3)c2ncn1C1CCC(O)CC1 (centres undefined)
result: 150 nM

compound: COc1cc(N=Nc2ccc(O)c3ncccc23)c2ncccc2c1
result: 3430 nM

compound: O=C(NC[C@H](O)CN1CCc2ccccc2C1)c1cc(NC2COC2)ncn1
result: 13000 nM

compound: COc1cc(Cl)cc(-c2nn(-c3cccc(NC(=O)c4ccc(N5CCOCC5)c(C(F)(F)F)c4)c3)cc2-c2ccncc2)c1
result: 5030 nM

compound: COc1ccc(-c2ccc(=O)oc2C#Cc2cc(OC)c(OC)c(OC)c2)cc1O
result: 358 nM

compound: CN(C)CC[C@H](CSc1ccccc1)Nc1ccc(S(=O)(=O)NC(=O)c2ccc(N3CCN(Cc4ccccc4-c4ccc(Cl)cc4)CC3)cc2)cc1[N+](=O)[O-]
result: 3900 nM

compound: COc1cc(N(CCC#N)CCC#N)ccc1/C(N=Nc1ccc(Cl)cc1)=N/NC(=O)c1cc(Br)ccc1O
result: 145 µg/mL

compound: CN(C)C1CCN(C(=O)c2ccc(NC(=O)Nc3ccc(-c4nc(N5CCOCC5)c5cccn5n4)cc3)cc2)CC1
result: 59.9 nM

compound: C[C@@H]1C[C@@H]([C@@H](CC2CC(=O)NC(=O)C2)OC(=O)CC(=O)c2ccccc2)C(=O)[C@@H](C)C1
result: 925 nM

compound: COc1ccc2nc3ccccc3c(NCc3ccc(F)cc3)c2c1
result: 1940 nM

compound: Cc1cc(N[C@@H]2CCC[C@H](Nc3ccnc4cc(Cl)ccc34)C2)nc(N2CCCCCC2)n1
result: 1730 nM

compound: NC(N)=N/N=C/c1c(Cl)cccc1Cl
result: 16300 nM

compound: CC(=O)ON1CCCC(P(=O)(OCCSC(=O)C(C)(C)C)OCCSC(=O)C(C)(C)C)C1=O (centres undefined)
result: 1020 nM

----------
test system: OVCAR-5 ovarian; experiment: NCI tumour cell line growth inhibition, 48 h
Returns one of Criterion met or Criterion not met; Criterion met when TGI is >= 30 µM.

molecule: CCN1CN(c2ccccc2)C2(CCN(CC3COc4ccccc4O3)CC2)C1=O (configuration not stated)
label_class: Criterion met

molecule: Cc1nn(-c2ccccc2)c2c1C(c1cc3ccccc3nc1Cl)NC(=O)N2 (configuration not stated)
label_class: Criterion met

molecule: O=C1CCC(c2ccccc2)=NN1c1nsc2ccccc12
label_class: Criterion met

molecule: O=P(O)(O)C(N=C(Nc1ccccc1)Nc1ccccc1)P(=O)(O)O
label_class: Criterion met

molecule: N#CC(C(=O)/C(=N\NC(N)=O)C(C#N)c1ccc(Cl)cc1)c1ccc(Cl)cc1 (configuration not stated)
label_class: Criterion met

molecule: COc1ccc2nc3ccccc3c(NCc3ccc(F)cc3)c2c1
label_class: Criterion not met

molecule: O=C1OCC/C1=N/O
label_class: Criterion met

molecule: NC(N)=N/N=C/c1c(Cl)cccc1Cl
label_class: Criterion met

molecule: COC(=O)/C=C\C(C#N)(C#N)N=Cc1ccc(C)cc1
label_class: Criterion met

molecule: C[n+]1c(/C=C/c2c(O)ccc3ccccc23)ccc2ccccc21
label_class: Criterion not met

molecule: Cc1nnc(Nc2ccc(NC(=O)Nc3ccc(Cl)cc3)cc2)c2ccccc12
label_class: Criterion not met

molecule: CCOC(=O)c1nc2c(OC)nn(O)cc-2c1[N+](=O)[O-]
label_class: Criterion met

molecule: C/C(C[n+]1ccccc1)=N\N=C(N)N
label_class: Criterion met

molecule: COC(=O)C(Cc1ccc2c(c1)CCC2)Cc1ccc2c(c1)CCC2
label_class: Criterion met

molecule: CC1=Cc2cccc(C)c2C(=O)C1=O
label_class: Criterion met

molecule: COc1ccc(-c2ccc(=O)oc2C#Cc2cc(OC)c(OC)c(OC)c2)cc1O
label_class: Criterion met

molecule: COc1c(O)c2c(=O)cc3c4c5c(cc(=O)c6c(O)c(OC)c(CC(C)O)c(c(c1CC(C)O)c24)c65)OCO3 (configuration not stated)
label_class: Criterion not met

molecule: COc1ccc(C(=O)Nc2ccc(O)c(=O)cc2)cc1
label_class: Criterion met

molecule: COC1=CC(=O)c2c(c(-c3nc(C)cs3)cn2C)C1=O
label_class: Criterion met

molecule: CCCCCCCCCCCC[S+](C)C
label_class: Criterion not met

molecule: Cc1ccc(C)c(NC(=O)c2cccc([N+](=O)[O-])c2O)c1
label_class: Criterion met

molecule: O=C(NCP(=O)(Oc1ccccc1)Oc1ccccc1)OCc1ccccc1
label_class: Criterion met

molecule: N#Cc1nn(-c2cc(=O)[nH]c3ccc(Cl)cc23)c(N)c1C#N
label_class: Criterion met

molecule: CC(c1ccccc1)N1CCN(C(C)c2ccccc2)CC1 (configuration not stated)
label_class: Criterion met

molecule: O=C(/C(=C/c1ccc(Cl)cc1)c1ccccc1)c1ccccc1
label_class: Criterion met

molecule: COC(=O)[C@]12CC[C@@H](C)[C@H](C)[C@@H]1C1=CC[C@@H]3[C@@]4(C)C[C@@H](O)[C@H](O)[C@@](C)(CO)C4=CC[C@@]3(C)[C@]1(C)CC2
label_class: Criterion met

molecule: COc1cc2c(cc1OC)C1C3CCCCC3CCN1CC2 (configuration not stated)
label_class: Criterion met

molecule: COc1cc(Cl)cc(-c2nn(-c3cccc(NC(=O)c4ccc(N5CCOCC5)c(C(F)(F)F)c4)c3)cc2-c2ccncc2)c1
label_class: Criterion met

molecule: CSc1cc(-c2cccs2)sc1-c1cc(SC)c(-c2sc(-c3sc(-c4cccs4)cc3SC)cc2SC)s1
label_class: Criterion met

molecule: CCN1CCN(c2cc(C)c3cc(NC(=O)c4ccc(OC)c(OC)c4)ccc3n2)CC1
label_class: Criterion met

molecule: CN1C(=O)c2ccccc2NC(=O)C12O[C@@H]2c1ccccc1 (some centres not stated)
label_class: Criterion met

molecule: O=C(O)[C@H]1CCCN1CP(=O)(O)CN1CCC[C@@H]1C(=O)O
label_class: Criterion met

molecule: CNCCOC(=O)/C=C1\CC[C@H]2[C@@H]([C@@H](O)C(=O)[C@@H]3[C@]2(C)CC[C@H](O)[C@]3(C)C(=O)OC)[C@H]1C
label_class: Criterion not met

molecule: O=c1oc2ccc(-c3ccc(F)cc3F)cc2c(=O)n1-c1cccc(C(F)(F)F)c1
label_class: Criterion met

molecule: S=c1[nH]c(=S)c2cc3ccccc3nc2[nH]1
label_class: Criterion met

molecule: CN(C)C1CCN(C(=O)c2ccc(NC(=O)Nc3ccc(-c4nc(N5CCOCC5)c5cccn5n4)cc3)cc2)CC1
label_class: Criterion not met

molecule: O=C(/C=C/c1ccc[nH]1)c1ccc(-n2ccc(C(F)(F)F)n2)cc1
label_class: Criterion met

molecule: CN1CCOC1c1ccccc1O (configuration not stated)
label_class: Criterion met

molecule: O=c1oc2cc(O)ccc2c(O)c1C(c1ccccc1)c1c(O)c2ccc(O)cc2oc1=O
label_class: Criterion met

molecule: CC(C)c1cc2c(c(O)c1O)[C@@]1(C(=O)O)CCCC(C)(C)[C@@H]1CC2
label_class: Criterion met

molecule: CCOC(=O)Nc1cc2c(c(N)n1)N=C(c1ccccc1)CO2
label_class: Criterion met

molecule: N#CNC(=NCc1ccccc1)N(Cc1ccccc1)Cc1ccccc1
label_class: Criterion met
